- assay_system: Histamine H3 receptor (Rattus norvegicus)
- method_description: In vitro antagonism of the histamine H3-receptor in the rat cerebral cortex.
- Format: functional, tissue-based
parameter_measured: Ki (nM)

Worked cases, Ki given:
Summary line: S=C(NCCCc1cnc[nH]1)NC1CCCCC1 , Histamine H3 receptor (Rattus norvegicus), reported Ki = 13

Summary line: c1ccc(NCCc2c[nH]cn2)nc1 , Histamine H3 receptor (Rattus norvegicus), reported Ki = 200

Summary line: Clc1cc(NCCc2cnc[nH]2)ccn1 , Histamine H3 receptor (Rattus norvegicus), reported Ki = 160

Summary line: O=[N+]([O-])c1cc[n+]([O-])c(NCCc2c[nH]cn2)c1 , Histamine H3 receptor (Rattus norvegicus), reported Ki = 53

Summary line: O=[N+]([O-])c1ccc(NCCCc2c[nH]cn2)nc1 , Histamine H3 receptor (Rattus norvegicus), reported Ki = 170

a = FC(F)(F)c1ccc(NCCc2cnc[nH]2)nc1
b = O=[N+]([O-])c1ccc(NCCc2c[nH]cn2)nc1
Could you tell me which of these two has the smaller Ki figure? First: a Second: b Label of pick, please. a
(a: 17 nM, b: 29 nM)

###

- assay_system: Histamine H3 receptor (Rattus norvegicus, UniProt Q9QYN8)
- Sequence (Q9QYN8 whole entry): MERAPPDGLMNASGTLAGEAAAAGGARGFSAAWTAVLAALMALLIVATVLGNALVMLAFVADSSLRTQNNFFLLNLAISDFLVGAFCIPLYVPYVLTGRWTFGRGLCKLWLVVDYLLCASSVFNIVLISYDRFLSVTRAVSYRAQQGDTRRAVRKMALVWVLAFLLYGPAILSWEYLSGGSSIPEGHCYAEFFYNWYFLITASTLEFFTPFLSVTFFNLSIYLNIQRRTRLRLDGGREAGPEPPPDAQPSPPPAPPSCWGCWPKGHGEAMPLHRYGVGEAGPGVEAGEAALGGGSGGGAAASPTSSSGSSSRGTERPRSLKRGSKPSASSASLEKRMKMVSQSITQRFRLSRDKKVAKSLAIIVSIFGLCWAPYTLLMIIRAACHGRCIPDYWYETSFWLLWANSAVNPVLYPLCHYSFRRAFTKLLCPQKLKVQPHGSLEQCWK
- method_description: In vitro antagonism of the histamine H3-receptor in the rat cerebral cortex.
- Format: functional, tissue-based
pKi: −log10 of the molar value.
parameter_measured: pKi

Worked cases, pKi given:
Summary line: c1cnc(NCCc2c[nH]cn2)cn1 , Histamine H3 receptor (Rattus norvegicus, UniProt Q9QYN8), reported pKi = 6.70

Summary line: c1ccc(SCCc2cnc[nH]2)nc1 , Histamine H3 receptor (Rattus norvegicus, UniProt Q9QYN8), reported pKi = 7.04

1 = FC(F)(F)c1ccc(N2CCC(c3cnc[nH]3)CC2)nc1
2 = O=[N+]([O-])c1cccnc1NCCc1c[nH]cn1
3 = c1c[nH]c(SCCc2cnc[nH]2)n1
Sort ascending by pKi. Reply with the item labels sorted in the order that was asked for. 3, 2, 1
(3: 6.40, 2: 6.62, 1: 7.38)

I = CNC(=S)NCCCCc1cnc[nH]1 [BURIMAMIDE]
II = c1csc(NCCc2cnc[nH]2)n1
Response body: label of entry with the larger pKi; valid values I , II . Label of pick, please. I

###

- assay_system: Histamine H3 receptor (Rattus norvegicus)
- method_description: In vitro antagonism of the histamine H3-receptor in the rat cerebral cortex.
- Format: functional, tissue-based
parameter_measured: Ki

Worked cases, Ki given:
Summary line: c1ccc(CCNc2ncccn2)nc1 , Histamine H3 receptor (Rattus norvegicus), reported Ki = > 10000 nM

Summary line: O=[N+]([O-])c1ccc(NCCc2ccccn2)nc1 , Histamine H3 receptor (Rattus norvegicus), reported Ki = ~1000 nM

Summary line: S=C(NCCSCc1c[nH]cn1)NC1CCCCC1 , Histamine H3 receptor (Rattus norvegicus), reported Ki = ~500 nM

Summary line: O=[N+]([O-])c1ccc(SCc2c[nH]cn2)nc1 , Histamine H3 receptor (Rattus norvegicus), reported Ki = ~600 nM

Summary line: S=C(NC1CCCCC1)N1CCC(c2cnc[nH]2)CC1 [THIOPERAMIDE] , Histamine H3 receptor (Rattus norvegicus), reported Ki = 4.3 nM

New cases:
Summary line: COC(=O)c1ccc(NCCc2cnc[nH]2)nc1 , Histamine H3 receptor (Rattus norvegicus), reported Ki = 42 nM

Summary line: S=C(NCCc1c[nH]cn1)NC1CCCCC1 , Histamine H3 receptor (Rattus norvegicus), reported Ki = ~200 nM
